assayed target: EGFR (ErbB1) T790M L858R (Homo sapiens (Human), UniProt P00533, L858R/T790M)
Sequence (P00533 25-1210 T790M/L858R): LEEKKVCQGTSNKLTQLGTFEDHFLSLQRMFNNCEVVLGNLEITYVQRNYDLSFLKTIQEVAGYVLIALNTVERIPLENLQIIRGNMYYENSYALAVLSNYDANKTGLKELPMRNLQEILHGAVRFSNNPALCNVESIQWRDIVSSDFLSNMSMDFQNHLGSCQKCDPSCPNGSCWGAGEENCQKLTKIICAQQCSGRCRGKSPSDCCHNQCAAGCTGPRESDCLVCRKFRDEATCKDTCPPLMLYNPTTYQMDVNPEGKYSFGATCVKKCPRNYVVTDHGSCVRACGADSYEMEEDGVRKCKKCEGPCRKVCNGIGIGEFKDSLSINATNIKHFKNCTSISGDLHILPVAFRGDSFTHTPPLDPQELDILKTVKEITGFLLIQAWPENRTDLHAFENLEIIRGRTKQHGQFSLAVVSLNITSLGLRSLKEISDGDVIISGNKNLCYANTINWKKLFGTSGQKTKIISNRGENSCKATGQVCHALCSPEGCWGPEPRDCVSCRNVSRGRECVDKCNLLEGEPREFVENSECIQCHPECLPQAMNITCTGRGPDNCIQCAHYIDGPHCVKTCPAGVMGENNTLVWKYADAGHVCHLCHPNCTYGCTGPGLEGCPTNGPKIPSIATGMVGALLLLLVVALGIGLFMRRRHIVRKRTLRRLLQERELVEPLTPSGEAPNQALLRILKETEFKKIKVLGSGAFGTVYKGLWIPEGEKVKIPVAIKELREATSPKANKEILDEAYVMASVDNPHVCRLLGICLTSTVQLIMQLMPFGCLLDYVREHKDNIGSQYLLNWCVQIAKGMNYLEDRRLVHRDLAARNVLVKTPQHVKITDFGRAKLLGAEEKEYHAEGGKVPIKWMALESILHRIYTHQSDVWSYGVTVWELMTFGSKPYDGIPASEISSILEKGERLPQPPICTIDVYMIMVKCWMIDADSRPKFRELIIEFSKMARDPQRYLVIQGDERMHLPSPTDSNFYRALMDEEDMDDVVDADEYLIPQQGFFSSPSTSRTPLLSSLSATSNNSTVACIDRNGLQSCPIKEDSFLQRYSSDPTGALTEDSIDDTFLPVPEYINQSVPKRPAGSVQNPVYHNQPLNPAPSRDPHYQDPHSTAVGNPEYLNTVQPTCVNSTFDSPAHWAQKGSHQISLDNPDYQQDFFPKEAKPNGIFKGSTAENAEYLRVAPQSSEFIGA
assay text: Z'-LYTE kinase inhibition assay, EGFR L858R/T790M
Type: biochemical
stated conditions: read-out: % inhibition against EGFR L858R/T790M (Compound at 0.0137 μM)
Experimental: Inhibitory activities of compounds against BTK, EGFR and EGFR mutants (EGFR L858R, EGFR T790M, EGFR L858R/T790M), FGFR1, FGFR2, JAK2, JAK3 and KDR were measured by Invitrogen using Z'-LYTE® Method as briefly described in the following. Test Compounds are screened in 1% DMSO (final) in the well. For 10 point titrations, 3-fold serial dilutions are conducted from the starting concentration. […] Finally fluorescence is read by plate reader. […]
Measured inhibition at 0.0137 µM accompanies every entry in the list below.

Take a look at these entries with their results.
item smiles: C=CC(=O)Nc1ccc(C#N)c(-c2cccc3cnc(Nc4ccc(N5CCN(C)CC5)cc4)nc23)c1
outcome measure: inhibition at 0.0137 µM
reading: < 50%
--
item smiles: C=CC(=O)Nc1cccc(-c2cccc3cnc(Nc4ccc(N5CCN(C)CC5)c(C#N)c4)nc23)c1
outcome measure: inhibition at 0.0137 µM
reading: > 50%
--
item smiles: C=CC(=O)Nc1cccc(-c2cccc3cnc(Nc4ccc(N5CCCOCC5)cc4)nc23)c1
outcome measure: inhibition at 0.0137 µM
reading: < 50%

Now for another entry.
Prompt: Reported inhibition at 0.0137 µM for EGFR (ErbB1) T790M L858R (Homo sapiens (Human), UniProt P00533, L858R/T790M), given "C=CC(=O)Nc1cccc(-c2cccc3cnc(Nc4ccc(NC5CCN(C)CC5)cc4)nc23)c1" ?
Response: > 50%
